System: pulp cells (HPC), normal oral cells
Test: MTT cytotoxicity assay, HPC
Assay type: cell-based, human
Settings: 48 h, average of three determinations
Readout Name: CC50

Which CC50 reading was recorded for the compound `NS(=O)(=O)c1ccc(-n2cc(/C=C/C(=O)c3ccccc3)c(-c3ccccc3)n2)cc1` ?
> 400 µM

* * *

Test system: gingival fibroblast (HGF), normal oral cells
Assay: MTT cytotoxicity assay, HGF
Format: cell-based, human
Conditions: 48 h, average of three determinations
Readout Name: CC50 (µM)
Report only the number, with the unit µM understood.

Which CC50 reading was recorded for the compound NS(=O)(=O)c1ccc(-n2cc(/C=C/C(=O)c3ccccc3)c(-c3ccccc3)n2)cc1 [MS4] ?
351

* * *

System: HSC-4 cells (OSCC, tongue)
Test: MTT cytotoxicity assay, HSC-4
Type: cell-based, human
Details: 48 h, average of three determinations
Readout Name: CC50 (µM)
Report only the number, with the unit µM understood.

Which CC50 reading was recorded for the compound NS(=O)(=O)c1ccc(-n2cc(/C=C/C(=O)c3ccccc3)c(-c3ccccc3)n2)cc1 [MS4] ?
3.5

* * *

System: HSC-2 cells (OSCC, tongue)
Experiment: MTT cytotoxicity assay, HSC-2
Settings: read-out: CC50 HSC-2; OSCC, 48 h, MTT, average of three determinations
Readout Name: CC50

Which CC50 reading was recorded for the compound `NS(=O)(=O)c1ccc(-n2cc(/C=C/C(=O)c3ccccc3)c(-c3ccccc3)n2)cc1` ?
1.1 µM

* * *

System: HSC-4 cells (OSCC, tongue)
Test: MTT cytotoxicity assay, HSC-4
Type: cell-based, human
Conditions: Homo sapiens, HSC-4, 48 h, average of three determinations
Each entry below carries its recorded CC50.
Report only the number, with the unit µM understood.

Record Smiles: C/C(=N\Nc1ccc(S(N)(=O)=O)cc1)c1ccccc1
Value Reported: 15.7

Record Smiles: NS(=O)(=O)c1ccc(-n2cc(/C=C/C(=O)c3cccs3)c(-c3ccccc3)n2)cc1
Value Reported: 1.78

Record Smiles: COc1cc(OC)c(C(=O)/C=C/c2cn(-c3ccc(S(N)(=O)=O)cc3)nc2-c2ccccc2)cc1OC
Value Reported: 3

Record Smiles: Cc1ccc(C(=O)/C=C/c2cn(-c3ccc(S(N)(=O)=O)cc3)nc2-c2ccccc2)cc1
Value Reported: 3.1

Which CC50 reading was recorded for the compound `COc1ccc(C(=O)/C=C/c2cn(-c3ccc(S(N)(=O)=O)cc3)nc2-c2ccccc2)cc1OC` ?
83

* * *

Each entry below carries its recorded CC50 at 48 h.
Assay: MTT cytotoxicity assay, HPC
Type: cell-based, human
Settings: female, human, human pulp cells (HPC), normal oral cells, average of three determinations
Report only the number, with the unit µM understood.

These recorded examples may help you get a feel for the data.
Compound: NS(=O)(=O)c1ccc(-n2cc(C=O)c(-c3ccccc3)n2)cc1 [MS3]
CC50 at 48 h / µM: 221

Compound: CN(C)C=NS(=O)(=O)c1ccc(-n2cc(C=O)c(-c3ccccc3)n2)cc1 [MS2]
CC50 at 48 h / µM: 214

Which CC50 at 48 h reading was recorded for the compound Cc1ccc(C(=O)/C=C/c2cn(-c3ccc(S(N)(=O)=O)cc3)nc2-c2ccccc2)cc1 [MS5] ?
30.3

Which CC50 at 48 h reading was recorded for the compound COc1ccc(C(=O)/C=C/c2cn(-c3ccc(S(N)(=O)=O)cc3)nc2-c2ccccc2)cc1 [MS6] ?
51.9

Which CC50 at 48 h reading was recorded for the compound NS(=O)(=O)c1ccc(-n2cc(/C=C/C(=O)c3cccs3)c(-c3ccccc3)n2)cc1 [MS10] ?
6.7

Which CC50 at 48 h reading was recorded for the compound COc1cccc2c1C(=O)c1c(O)c3c(c(O)c1C2=O)C[C@@](O)(C(=O)CO)C[C@@H]3O[C@H]1C[C@H](N)[C@H](O)[C@H](C)O1 [DXR, doxorubicin, reference compound] ?
9.2

Which CC50 at 48 h reading was recorded for the compound C/C(=N\Nc1ccc(S(N)(=O)=O)cc1)c1ccccc1 [MS1] ?
51
